Molecular target: T1, Recombinant DR3-Fc (R&D Systems, cat. #943-D3) (UniProt Q93038 25-199, limits assumed)
T1 construct: dimeric MW~92 kDa; also called DR3 receptor; Fc-DR3; not shown: Fc part of the bought fusion
T1 sequence (looked up): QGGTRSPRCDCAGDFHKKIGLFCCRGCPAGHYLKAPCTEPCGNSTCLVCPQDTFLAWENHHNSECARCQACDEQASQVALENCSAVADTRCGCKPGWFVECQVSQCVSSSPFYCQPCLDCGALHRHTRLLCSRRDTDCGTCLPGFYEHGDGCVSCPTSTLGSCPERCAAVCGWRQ
Assay: ELISA, DR3-Fc immobilized
observed_property: Rel EC50

Incoming: Item TL1W98 (His-TEV-TL1A K173R) (ligand, also called TL1W98 (K173R)) HHHHHHENLYFQGLKGQEFAPSHQQVYAPLRADGDKPRAHLTVVRQTPTQHFKNQFPALHWEHELGLAFTKNRMNYTNKFLLIPESGDYFIYSQVTFRGMTSECSEIRQAGRPNRPDSITVVITKVTDSYPEPTQLLMGTKSVCEVGSNWFQPIYLGAMFSLQEGDKLMVNVSDISLVDYTKEDKTFFGAFLL has what recorded Rel EC50?
Outgoing: 78.4 ratio (head: nM)

Incoming: Now this one: TL1W29 (His-TEV-hTL1A 72-251 P189A) (ligand, also called TL1W29 (P189A)) HHHHHHENLYFQGLKGQEFAPSHQQVYAPLRADGDKPRAHLTVVRQTPTQHFKNQFPALHWEHELGLAFTKNRMNYTNKFLLIPESGDYFIYSQVTFRGMTSECSEIRQAGRPNKPDSITVVITKVTDSYAEPTQLLMGTKSVCEVGSNWFQPIYLGAMFSLQEGDKLMVNVSDISLVDYTKEDKTFFGAFLL
Outgoing: 27.1 ratio (head: nM)

Incoming: Moving on to TL1W125 (His-TEV-TL1A N207E) (ligand, also called TL1W125 (N207E)) HHHHHHENLYFQGLKGQEFAPSHQQVYAPLRADGDKPRAHLTVVRQTPTQHFKNQFPALHWEHELGLAFTKNRMNYTNKFLLIPESGDYFIYSQVTFRGMTSECSEIRQAGRPNKPDSITVVITKVTDSYPEPTQLLMGTKSVCEVGSEWFQPIYLGAMFSLQEGDKLMVNVSDISLVDYTKEDKTFFGAFLL
Outgoing: 19.3 ratio (head: nM)

Incoming: One more binder: TL1W33 (His-TEV-hTL1A 72-251 R103A) (ligand, also called TL1W33 (R103A)) HHHHHHENLYFQGLKGQEFAPSHQQVYAPLRADGDKPRAHLTVVAQTPTQHFKNQFPALHWEHELGLAFTKNRMNYTNKFLLIPESGDYFIYSQVTFRGMTSECSEIRQAGRPNKPDSITVVITKVTDSYPEPTQLLMGTKSVCEVGSNWFQPIYLGAMFSLQEGDKLMVNVSDISLVDYTKEDKTFFGAFLL
Outgoing: 1 ratio (head: nM)

Incoming: Same thing, different binder: TL1W97 (His-TEV-TL1A K173S) (ligand, also called TL1W97 (K173S)) HHHHHHENLYFQGLKGQEFAPSHQQVYAPLRADGDKPRAHLTVVRQTPTQHFKNQFPALHWEHELGLAFTKNRMNYTNKFLLIPESGDYFIYSQVTFRGMTSECSEIRQAGRPNSPDSITVVITKVTDSYPEPTQLLMGTKSVCEVGSNWFQPIYLGAMFSLQEGDKLMVNVSDISLVDYTKEDKTFFGAFLL
Outgoing: 5 ratio (head: nM)

Incoming: Next binder up: TL1W47 (His-TEV-TL1A E241A) (ligand, also called TL1W47 (E241A)) HHHHHHENLYFQGLKGQEFAPSHQQVYAPLRADGDKPRAHLTVVRQTPTQHFKNQFPALHWEHELGLAFTKNRMNYTNKFLLIPESGDYFIYSQVTFRGMTSECSEIRQAGRPNKPDSITVVITKVTDSYPEPTQLLMGTKSVCEVGSNWFQPIYLGAMFSLQEGDKLMVNVSDISLVDYTKADKTFFGAFLL
Outgoing: 9.9 ratio (head: nM)

Cited source: patent US20220056104A1
